# subjectOfTest: Histone deacetylase 8 (Homo sapiens, UniProt Q9BY41)
# Sequence (Q9BY41 whole entry): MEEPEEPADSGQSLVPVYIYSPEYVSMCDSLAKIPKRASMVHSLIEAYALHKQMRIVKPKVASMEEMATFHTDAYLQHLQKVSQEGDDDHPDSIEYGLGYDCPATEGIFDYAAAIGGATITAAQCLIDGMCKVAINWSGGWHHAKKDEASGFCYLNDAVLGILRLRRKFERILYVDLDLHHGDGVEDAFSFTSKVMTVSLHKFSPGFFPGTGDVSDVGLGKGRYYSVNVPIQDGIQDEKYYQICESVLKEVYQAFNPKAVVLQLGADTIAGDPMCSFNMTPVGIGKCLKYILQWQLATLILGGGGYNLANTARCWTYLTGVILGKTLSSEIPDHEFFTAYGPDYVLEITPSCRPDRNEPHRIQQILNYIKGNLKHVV
# procedureDetails: Inhibition of recombinant human HDAC8
endpointName: Ki (µM)
Note: unit µM is implicit; provide only the numeric part.

Exercise: I am curious: what Ki value has been reported for O=C(CCCCCONC(=O)c1c(Cl)cncc1Cl)NO ?
Key: 18.9

Exercise: Next molecule up: CC(C)(C)c1cc(C(=O)NOCCCCCC(=O)NO)cc(C(C)(C)C)c1
Key: 28.1

Exercise: Next molecule up: Cc1cc(C)cc(C(=O)NOCCCCC(=O)NO)c1
Key: 22.3

Exercise: Next molecule up: O=C(CCCCCONC(=O)c1cc(F)cc(F)c1)NO
Key: 14.7

Exercise: Next molecule up: COc1cc(OC)cc(C(=O)NOCCCCCC(=O)NO)c1
Key: 5.69

Exercise: Next molecule up: O=C(CCCCCONC(=O)c1cc(I)cc(I)c1I)NO
Key: 10

====

# Test system: A2780
# procedureDetails: Cytotoxicity against human A2780 cells assessed as reduction in cell viability by MTT assay
# Type: functional, cell-based
Would you mind telling me the reported IC50 of each entry?
Note: unit µM is implicit; provide only the numeric part.

Exercise: Param readout = IC50; param system = A2780; param query = O=C(CCCCCONC(=O)c1cc(Br)cc(Br)c1)NO ; response: value
Key: 10.2

Exercise: Next compound up: Cc1cc(C)cc(C(=O)NOCCCCC(=O)NO)c1
Key: 9.34

Exercise: Next compound up: O=C(CCCCCONC(=O)c1cc(F)cc(F)c1)NO
Key: 13.7

Exercise: Next compound up: COc1cc(C(=O)NOCCCCCC(=O)NO)cc(OC)c1OC
Key: 13.8

====

# Test system: CAL-27
# procedureDetails: Cytotoxicity against human CAL27 cells assessed as reduction in cell viability by MTT assay
# Type: functional, cell-based
endpointName: IC50 (µM)
Note: unit µM is implicit; provide only the numeric part.

Exercise: I am curious: what IC50 value has been reported for Cc1cc(C)cc(C(=O)NOCCCCCC(=O)NO)c1 ?
Key: 0.76

Exercise: Next compound up: O=C(CCCCCONC(=O)c1cc(I)cc(I)c1I)NO
Key: 45

Exercise: Next compound up: O=C(CCCCCONC(=O)c1c(Cl)cncc1Cl)NO
Key: 28.1

Exercise: Next compound up: CC(C)(C)c1cc(C(=O)NOCCCCCC(=O)NO)cc(C(C)(C)C)c1
Key: 1

Exercise: Next compound up: COc1cc(C(=O)NOCCCCCC(=O)NO)cc(OC)c1OC
Key: 3.07

Exercise: Next compound up: O=C(CCCCCONC(=O)c1cc(Br)cc(Br)c1)NO
Key: 3.63

Exercise: Next compound up: Cc1cc(C)cc(C(=O)NOCCCCC(=O)NO)c1
Key: 8.67

Exercise: Next compound up: COc1cc(OC)cc(C(=O)NOCCCCCC(=O)NO)c1
Key: 0.72
